// compounds with pIC50 on Beta-1 adrenergic receptor (Homo sapiens), multi-source literature
Numbers only, as −log10 of the molar value.

Hi! Can you tell me pIC50 for each of these compounds?
1. CCCCCCN(C)C(=O)N(C)c1ccc(S(=O)(=O)Nc2ccc(CCNC[C@H](O)COc3ccc(O)cc3)cc2)cc1
2. CN(C(=O)N1CCc2cc(S(=O)(=O)Nc3ccccc3)ccc21)C(C)(C)Cc1ccccc1

[6.29, 5.52]

Hi! Can you tell me pIC50 for each of these compounds?
1. O=S(=O)(Nc1ccc(CCNC[C@H](O)c2cccnc2)cc1)c1ccc(-c2nc(-c3ccccc3C(F)(F)F)cs2)cc1
2. NC(=O)c1cc(-c2ccnc(NC3CCCCC3)c2)nc(N2CCNCC2)c1
3. N#Cc1ccccc1OC[C@@H](O)CNCCNC(=O)Nc1ccc(F)nc1
4. N#Cc1ccccc1OC[C@@H](O)CNCCCC(=O)Nc1ccc(F)nc1
5. CCCCCNC(=O)Nc1ccc(S(=O)(=O)Nc2ccc(CCNC[C@H](O)COc3ccc(O)cc3)cc2)cc1
6. CCCCCCNC(=O)N(C)c1ccc(S(=O)(=O)Nc2ccc(CCNC[C@H](O)COc3ccc(O)cc3)cc2)cc1
7. CCCCCCOC(=O)Nc1ccc(S(=O)(=O)Nc2ccc(CCNC[C@H](O)COc3ccc(O)cc3)cc2)cc1

1: 5.72; 2: 5.08; 3: 9.52; 4: 8.52; 5: 6.52; 6: 6.13; 7: 6.72

Hi! Can you tell me pIC50 for each of these compounds?
1. CCCCCCCCC(=O)N1CCc2cc(S(=O)(=O)Nc3ccccc3)ccc21
2. N#Cc1ccccc1OC[C@@H](O)CNCCNC(=O)Nc1cccc(OCCF)c1
3. O=S(=O)(Nc1ccc(CCNC[C@H](O)c2cccnc2)cc1)c1ccc(-c2nc(-c3ccc(OC(F)(F)F)cc3)cs2)cc1
4. COc1ccc(NC(=O)NCCNC[C@H](O)COc2ccccc2C#N)cc1
5. CCCCCCCCN(C)C(=O)N1CCc2cc(S(=O)(=O)Nc3ccccc3)ccc21
6. CCOc1ccc(NC(=O)NCCNC[C@H](O)COc2cccc(F)c2C#N)cc1
7. CN(CCOCCCNC[C@H](O)c1ccc(O)c2[nH]c(=O)sc12)CCc1ccccc1
8. CCCCCCN(C)C(=O)Nc1ccc(S(=O)(=O)Nc2ccc(CCNC[C@H](O)COc3ccc(O)cc3)cc2)cc1

5.74
10.40
5.08
9.96
6.01
8.70
6.40
6.10

* * *

// molecules with IC50 on Beta-1 adrenergic receptor (Homo sapiens), multi-source literature
Answers are plain numbers, in nM.

Hi! Can you tell me IC50 for each of these molecules?
1. N#Cc1ccccc1OC[C@@H](O)CNCCNC(=O)Cc1ccc(F)cc1
2. CN(CCc1ccccc1)C(=O)N1CCc2cc(S(=O)(=O)Nc3ccccc3)ccc21
3. O=S(=O)(Nc1ccc(CCNC[C@H](O)c2cccnc2)cc1)c1ccc(-c2nc(-c3ccc(F)cc3F)cs2)cc1

0.14
10000
2500

Hi! Can you tell me IC50 for each of these molecules?
1. CC(C)NC(=O)Nc1ccc(S(=O)(=O)Nc2ccc(CCNC[C@H](O)COc3ccc(O)cc3)cc2)cc1
2. N#Cc1ccccc1OC[C@@H](O)CNCCNC(=O)Nc1ccccc1F
3. CCCCCCc1nc(N2CCc3cc(S(=O)(=O)Nc4ccccc4)ccc32)no1
4. O=c1[nH]c2c(O)ccc([C@@H](O)CNCC[S+]([O-])CCCNCCc3cccc(Cl)c3)c2s1 (some centres undefined)
5. N#Cc1ccccc1OC[C@@H](O)CNCCNC(=O)Nc1ccc(C(=O)O)c(F)c1
6. CCCCCCC(=O)N1CCc2cc(S(=O)(=O)Nc3ccccc3)ccc21
7. O=c1[nH]c2c(O)ccc([C@@H](O)CNCCCOCCNCCc3cccc(Cl)c3)c2s1
8. N#Cc1ccccc1OC[C@@H](O)CNCCNC(=O)Nc1ccc(F)cc1

1. 150
2. 0.2
3. 600
4. 158
5. 1
6. 10000
7. 63.1
8. 0.1

* * *

pIC50: −log10 of the molar value.
// compounds with pIC50 on Beta-1 adrenergic receptor (Homo sapiens, UniProt P08588), multi-source literature
Sequence (P08588 whole entry): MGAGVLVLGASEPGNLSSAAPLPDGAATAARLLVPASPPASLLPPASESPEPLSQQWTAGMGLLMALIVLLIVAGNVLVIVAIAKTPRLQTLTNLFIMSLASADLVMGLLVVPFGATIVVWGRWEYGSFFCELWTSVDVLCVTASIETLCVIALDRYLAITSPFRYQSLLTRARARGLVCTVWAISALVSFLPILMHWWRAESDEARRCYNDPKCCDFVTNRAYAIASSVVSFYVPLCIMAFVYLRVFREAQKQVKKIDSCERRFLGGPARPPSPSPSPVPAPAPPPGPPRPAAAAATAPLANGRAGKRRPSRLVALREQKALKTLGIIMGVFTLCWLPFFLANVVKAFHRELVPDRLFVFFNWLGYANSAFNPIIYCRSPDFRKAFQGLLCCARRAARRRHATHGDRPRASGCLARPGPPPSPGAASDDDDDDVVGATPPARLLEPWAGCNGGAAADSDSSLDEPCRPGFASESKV
Tick label 1 if pIC50 is 6 or greater. Tick label 0 if pIC50 is less than 6.

# bool: pIC50 of O=C(OC[C@@H]1CCN2CCC[C@@H]12)c1c[nH]c2ccccc12 >= 6
label 0

Now the compound Fc1ccc(-c2noc(C3CCN(c4cnc5ccc(Cl)cc5c4)CC3)n2)c(Cl)c1
label 0

Now the compound C[C@@H](C(=O)Nc1ccc(C[C@@H]2CC[C@H]([C@H](O)c3cccnc3)N2)cc1)n1ncccc1=O
label 0

Now the compound O=C(Cn1ccccc1=O)Nc1ccc(C[C@@H]2CC[C@H]([C@H](O)c3ccccc3)N2)cc1
label 0

Now the compound O=C(Nc1ccc(C[C@@H]2CC[C@H]([C@H](O)c3ccccc3)N2)cc1)[C@@H]1CCc2nccc(=O)n21
label 0

Now the compound Cc1nnc(-c2cccc(CN3CCN(C(=O)c4ccc(C[C@@H]5CC[C@H]([C@H](O)c6ccccc6)N5)cc4)CC3)n2)o1
label 0

Now the compound O=C(c1ccc(C[C@@H]2CC[C@H]([C@H](O)c3ccccc3)N2)cc1)N1CCN(Cc2nnn(CC3CC3)n2)CC1
label 0

Now the compound CCn1nnc(CN2CCN(C(=O)c3ccc(C[C@@H]4CC[C@H]([C@H](O)c5ccccc5)N4)cc3)CC2)n1
label 0

Now the compound N#Cc1ccccc1OC[C@@H](O)CNCCNC(=O)Nc1ccc(OCCF)nc1
label 1

Now the compound O=c1[nH]c2c(O)ccc([C@@H](O)CNCCCOCCNCCc3cccc(Cl)c3Cl)c2s1
label 1

Now the compound Cc1csc(N2CCc3cc(S(=O)(=O)Nc4ccccc4)ccc32)n1
label 0

* * *

// molecules with pIC50 on Beta-1 adrenergic receptor (Homo sapiens), multi-source literature
Give bare numbers, as −log10 of the molar value.

Some entries whose results are on file:
[
  {
    "Molecule": "COCCCNC(=O)Nc1ccc(S(=O)(=O)Nc2ccc(CCNC[C@H](O)COc3ccc(O)cc3)cc2)cc1",
    "pIC50": 6.00
  },
  {
    "Molecule": "CC(C)C(=O)Nc1ccc(S(=O)(=O)Nc2ccc(CCNC[C@H](O)COc3ccc(O)cc3)cc2)cc1",
    "pIC50": 6.14
  },
  {
    "Molecule": "N#Cc1ccccc1OC[C@@H](O)CNCCNC(=O)Nc1nccs1",
    "pIC50": 7.59
  },
  {
    "Molecule": "CCCCCCc1cccc(N2CCc3cc(S(=O)(=O)Nc4ccccc4)ccc32)n1",
    "pIC50": 6.05
  }
]

Hi! Can you tell me pIC50 for each of these molecules?
1. COC(=O)Nc1ccc(S(=O)(=O)Nc2ccc(CCNC[C@H](O)COc3ccc(O)cc3)cc2)cc1
2. CC(CF)Nc1ccc(NC(=O)NCCNC[C@H](O)COc2ccccc2C#N)cc1 (stereo partly drawn)
3. CCCNC(=O)Nc1ccc(S(=O)(=O)Nc2ccc(CCNC[C@H](O)COc3ccc(O)cc3)cc2)cc1

6.60
8.82
6.27

* * *

// compounds with IC50 on Beta-1 adrenergic receptor (Homo sapiens, UniProt P08588), multi-source literature
One number for each entry, in nM.

Some entries whose results are on file:
[
  {
    "Chemical Structure": "O=S(=O)(Nc1ccc(CCNC[C@H](O)c2cccnc2)cc1)c1ccc(-c2nc(-c3cccc(C(F)(F)F)c3)cs2)cc1",
    "Endpoint Label": "IC50",
    "Endpoint Result": 1800
  },
  {
    "Chemical Structure": "N#Cc1ccccc1OC[C@@H](O)CNCCNC(=O)Nc1ccc(OCCF)cc1",
    "Endpoint Label": "IC50",
    "Endpoint Result": 0.08
  }
]

Hi! Can you tell me IC50 for each of these compounds?
1. CCCCCCCCc1cccc(N2CCc3cc(S(=O)(=O)Nc4ccccc4)ccc32)c1
2. CN(C)C(=O)N1CCc2cc(S(=O)(=O)Nc3ccccc3)ccc21
3. CCCCCCCNC(=O)Nc1ccc(S(=O)(=O)Nc2ccc(CCNC[C@H](O)COc3ccc(O)cc3)cc2)cc1

[2500, 9000, 200]

Hi! Can you tell me IC50 for each of these compounds?
1. O=S(=O)(Nc1ccccc1)c1ccc2c(c1)CCN2c1cccc(CCCC2CCCC2)c1
2. N#Cc1ccccc1OC[C@@H](O)CNCCNC(=O)Nc1ccc(Br)nc1

1. 4000
2. 0.05
